IC50 values, listed per item
target: human PDE5 (Homo sapiens); construct: from tissue; host or cells: human platelets from fresh donor blood (platelet lysate); assay: Inhibition of PDE5 activity (platelet lysate, SPA assay); format: biochemical; settings: 0.5 μM cGMP, read-out: PDE5 Inhibitory values measured as -logIC50 (converted)

Give its IC50 value. Item: "COc1ccc(C2=NN(C3CCN(C(=O)[C@H](NC(=O)c4c[nH]c5c(-c6c(OCC7CC7)ccc7c6OCO7)ncnc45)C(C)(C)C)CC3)C(=O)[C@@H]3CCCC[C@H]23)cc1OC"
1 to 10 nM

---
Could you tell me which IC50 is on file for "COc1ccc(C2=NN(C3CCN(C(=O)[C@@H](Cc4ccccc4)NC(=O)c4c[nH]c5c(-c6c(OCC7CC7)ccc7c6OCO7)ncnc45)CC3)C(=O)[C@@H]3CCC[C@H]23)cc1OC" ?
1 to 10 nM

Entry under review: "COc1ccc(C2=NN(C3CCN(C(=O)[C@H](Cc4cccnc4)NC(=O)c4c(C)[nH]c5c(-c6c(OCC7CC7)ccc7c6OCO7)ncnc45)CC3)C(=O)[C@@H]3CCCC[C@H]23)cc1OC" . Reported IC50?
< 1 nM

* * *

Listed next: entries and their corresponding IC50.
Biological target: PDE4B1 (Homo sapiens, UniProt Q07343)
Construct: made in house; host or cells: SF21 insect cells (baculovirus; virus made in SF9 cells, pCR-Bac vector)
Sequence (Q07343 whole entry): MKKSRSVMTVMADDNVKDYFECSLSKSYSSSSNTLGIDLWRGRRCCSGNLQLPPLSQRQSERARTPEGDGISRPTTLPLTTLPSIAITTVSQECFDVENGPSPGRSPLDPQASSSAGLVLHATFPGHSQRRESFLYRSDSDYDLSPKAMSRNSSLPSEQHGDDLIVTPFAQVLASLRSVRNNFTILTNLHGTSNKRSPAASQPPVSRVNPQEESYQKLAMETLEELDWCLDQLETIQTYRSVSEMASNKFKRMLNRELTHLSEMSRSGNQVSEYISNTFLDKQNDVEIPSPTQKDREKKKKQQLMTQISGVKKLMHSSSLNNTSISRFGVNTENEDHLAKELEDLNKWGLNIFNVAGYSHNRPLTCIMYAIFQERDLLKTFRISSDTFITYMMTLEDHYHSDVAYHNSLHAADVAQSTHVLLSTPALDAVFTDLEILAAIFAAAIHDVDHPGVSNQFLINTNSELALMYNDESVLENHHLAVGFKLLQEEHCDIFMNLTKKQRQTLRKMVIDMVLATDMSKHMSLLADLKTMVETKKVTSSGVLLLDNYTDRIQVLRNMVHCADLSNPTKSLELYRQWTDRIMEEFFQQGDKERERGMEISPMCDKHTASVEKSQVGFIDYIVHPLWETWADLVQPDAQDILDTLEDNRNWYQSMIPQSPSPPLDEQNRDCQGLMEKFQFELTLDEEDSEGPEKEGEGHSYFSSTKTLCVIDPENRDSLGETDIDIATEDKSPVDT
Experiment: Inhibition of PDE4 activity (PDE4B1, SPA assay)
Format: biochemical
Settings: recombinant PDE4B1, 0.5 μM cAMP; read-out: PDE4B1 Inhibitory values measured as -logIC50 (converted)
Protocol: Method for Measuring Inhibition of PDE4 Activity The PDE4B1 (GB no. L20966) was a gift of Prof. M. Conti (Stanford University, USA). […] PDE4B1 activities were measured in a 96-well platform using SPA (scintillation proximity assay) yttrium silicate beads (RPNQ1050 from GE Healthcare). […] Once the beads were sedimented (>30 min), the MTP's (micro titerplate) were analyzed in commercially available luminescence detection devices. […]

Here are 4 compounds together with their reported answers.
Looking for the measured IC50 of "COc1ccc(C2=NN(C3CCN(C(=O)[C@@H](Cc4ccc(C#N)cc4)NC(=O)c4c(C)[nH]c5c(-c6c(OCC7CC7)ccc7c6OCO7)ncnc45)CC3)C(=O)[C@@H]3CCCC[C@H]23)cc1OC" , can you help?
1 to 10 nM

So what's the measured IC50 for this one? "CCOc1ccc(C[C@@H](NC(=O)c2c(C)[nH]c3c(-c4c(OCC5CC5)ccc5c4OCO5)ncnc23)C(=O)N2CCC(N3N=C(c4ccc(OC)c(OC)c4)[C@H]4CCCC[C@H]4C3=O)CC2)cc1"
< 1 nM

Given the compound "COc1ccc(C2=NN(C3CCN(C(=O)[C@H](Cc4ccc(F)cc4)NC(=O)c4c[nH]c5c(-c6c(OCC7CC7)ccc7c6OCO7)ncnc45)CC3)C(=O)[C@@H]3CCCC[C@H]23)cc1OC" , what is its reported IC50?
1 to 10 nM

Give the measured IC50 of "COc1cc(-c2ncnc3c(C(=O)N[C@H](Cc4ccccc4)C(=O)N4CCC(N5N=C(c6ccc(OC)c(OC)c6)[C@H]6CCCC[C@H]6C5=O)CC4)c[nH]c23)c(OCC2CC2)cc1F" .
1 to 10 nM

Others:
Which IC50 reading was recorded for the compound "COc1ccc(C2=NN(C3CCN(C(=O)[C@@H](Cc4ccccc4)NC(=O)c4c[nH]c5c(-c6c(OCC7CC7)ccc7c6OCO7)ncnc45)CC3)C(=O)[C@H]3CCCC[C@@H]23)cc1OC" ?
> 10 nM

Tell me the measured IC50 of "COc1cc(OCC2CC2)c(-c2ncnc3c(C(=O)N[C@@H](CCC(=O)N4CCCCC4)C(=O)N4CCC(N5N=C(c6ccc(OC)c(OC)c6)[C@H]6CCCC[C@H]6C5=O)CC4)c(C)[nH]c23)cc1F" , please.
1 to 10 nM

Field request: IC50 | item: "COc1ccc(C2=NN(C3CCN(C(=O)[C@@H](Cc4ccc(C(C)(C)C)cc4)NC(=O)c4c(C)[nH]c5c(-c6c(OCC7CC7)ccc7c6OCO7)ncnc45)CC3)C(=O)[C@@H]3CCCC[C@H]23)cc1OC"
1 to 10 nM

Name the recorded IC50 for "COc1ccc(C2=NN(C3CCN(C(=O)[C@@H](Cc4ccccc4)NC(=O)c4c[nH]c5c(-c6c(OCC7CC7)ccc7c6OCO7)ncnc45)CC3)C(=O)[C@@H]3CCCC[C@H]23)cc1OC" .
1 to 10 nM

Entry under review: "COc1ccc(C2=NN(C3CCN(C(=O)[C@H](Cc4cccs4)NC(=O)c4c(C)[nH]c5c(-c6c(OCC7CC7)ccc7c6OCO7)ncnc45)CC3)C(=O)[C@@H]3CCCC[C@H]23)cc1OC" . Reported IC50?
< 1 nM

Which value of IC50 has been reported for "COc1ccc(C2=NN(C3CCN(C(=O)[C@@H](Cc4ccccc4)NC(=O)c4c[nH]c5c(-c6c(OCC7CC7)ccc7c6OCO7)ncnc45)CC3)C(=O)C3(CCCC3)C2)cc1OC" in the records?
1 to 10 nM
